- Measurement protocol: Cmax in C57BL/6 mouse at 20 mg/kg, iv by UPLC-MS analysis
- Assay type: ADME, organism-based
- Design: dose 20 mg/kg, route intravenous
- Assay context: in vivo
Cmax values for the compounds below.

{"Line notation": "COCCOc1cc2c(-n3nc(-c4ccccn4)nc3N)ncnc2cc1OC", "Cmax, µM": 9.5}
{"Line notation": "COc1cc2ncnc(-n3nc(-c4ccccn4)nc3N)c2cc1OC", "Cmax, µM": 4}
{"Line notation": "COCCOc1cc2ncnc(-n3nc(-c4ccccn4)nc3N)c2cc1OCCOC", "Cmax, µM": 5.8}

###

Stability values for the compounds below.
- Measurement protocol: Stability of the compound in phosphate buffered saline assessed as compound stability time at pH 7.4 by UPLC-MS analysis
- Assay type: physicochemical
- Assay context: buffer
Measure: Stability

{"Line notation": "COc1cc2ncnc(-n3nc(-c4ccccn4)nc3N)c2cc1OCCCNC(=O)OC(C)C", "Measure": "Stability", "Endpoint value": "> 24 h"}
{"Line notation": "COCCOc1cc2c(-n3nc(-c4ccccn4)nc3N)ncnc2cc1OC", "Measure": "Stability", "Endpoint value": "> 24 h"}
{"Line notation": "COc1cc2ncnc(-n3nc(-c4ccccn4)nc3N)c2cc1OC", "Measure": "Stability", "Endpoint value": "> 48 h"}
{"Line notation": "COCCOc1cc2ncnc(-n3nc(-c4ccccn4)nc3N)c2cc1OCCOC", "Measure": "Stability", "Endpoint value": "> 48 h"}

Cited source for all entries: ChEMBL document CHEMBL3763144
